I'd appreciate it if you could supply IC50 values for the items below.
target: mouse 11β-HSD1 (Mus musculus)
Construct: 100 ug/ml human/mouse liver microsomes; from tissue; host or cells: mouse liver microsomes
Sequence (P50172 whole entry): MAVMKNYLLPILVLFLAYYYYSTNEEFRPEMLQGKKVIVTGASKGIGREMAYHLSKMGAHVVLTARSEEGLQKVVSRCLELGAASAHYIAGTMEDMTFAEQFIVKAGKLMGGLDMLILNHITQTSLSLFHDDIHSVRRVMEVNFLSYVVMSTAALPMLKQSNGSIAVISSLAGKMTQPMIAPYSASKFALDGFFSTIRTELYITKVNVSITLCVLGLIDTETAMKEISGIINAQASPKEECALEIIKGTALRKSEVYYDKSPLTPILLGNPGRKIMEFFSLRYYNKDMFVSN
assay-comment: Enzyme activity analysis on mouse 11β-HSD1 (HTRF cortisol, liver microsomes)
Type: biochemical
setup-conditions: second value of cell

Example cases with answers are listed next.
INSERT INTO measurements (molecule, target, measured_attribute, result) VALUES
  ('CC(C)NC(=O)C12CC3CC(C1)C(NC(=O)C1(NS(=O)(=O)c4ccccc4Cl)CCC1)C(C3)C2 (stereo not drawn)', 'mouse 11β-HSD1 (Mus musculus)', 'IC50', '> 2.5 µM'),
  ('CC(C)(NS(=O)(=O)c1ccccc1Cl)C(=O)NC1C2CC3CC1CC(C(=O)NCCO)(C3)C2 (stereo not drawn)', 'mouse 11β-HSD1 (Mus musculus)', 'IC50', '> 2.5 µM');

Turning now to a further record.
The molecule identified as CC(C)NC(=O)C12CC3CC(C1)C(NC(=O)C(C)(C)NS(=O)(=O)c1ccccc1Cl)C(C3)C2 (stereo not drawn) registered its IC50 at > 2.5 µM

Values were extracted from patent US9073830B2.
